Taken from patent US20240043563A1.

Entries and their pEC50 values follow.
# Target of assay: Fc-hMASP-2A-CCS (human) [IgG part: P01857]
# Sequence (P01857 other isoform, or with tags, fused parts or gaps limits assumed, form in doubt): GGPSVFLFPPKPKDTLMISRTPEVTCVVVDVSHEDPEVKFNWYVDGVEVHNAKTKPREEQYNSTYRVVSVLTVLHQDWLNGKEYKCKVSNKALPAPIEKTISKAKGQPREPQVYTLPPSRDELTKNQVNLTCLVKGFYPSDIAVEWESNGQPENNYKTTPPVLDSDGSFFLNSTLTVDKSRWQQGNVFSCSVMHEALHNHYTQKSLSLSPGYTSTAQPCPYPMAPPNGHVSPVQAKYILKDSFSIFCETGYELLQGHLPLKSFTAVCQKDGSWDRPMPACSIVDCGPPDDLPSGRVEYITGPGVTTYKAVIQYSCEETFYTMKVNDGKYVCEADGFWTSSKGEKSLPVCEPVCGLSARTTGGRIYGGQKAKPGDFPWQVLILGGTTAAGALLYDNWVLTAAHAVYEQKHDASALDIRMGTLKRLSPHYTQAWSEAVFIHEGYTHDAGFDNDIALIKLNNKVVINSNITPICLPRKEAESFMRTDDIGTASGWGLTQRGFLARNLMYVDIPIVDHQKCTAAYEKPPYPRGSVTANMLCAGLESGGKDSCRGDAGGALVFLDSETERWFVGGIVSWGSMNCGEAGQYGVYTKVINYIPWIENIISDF
# Method description: ELISA according to Example 5, plate coated with Fc-hMASP-2A-CCS
pEC50: −log10 of the molar value.

>  <Binder>
humanized anti-human MASP-2 monoclonal antibody 100-Hu (antibody, human IgG4 S228P, kappa, V domains shown) VH: QVQLVESGGGVVQPGGSLRLSCAASGFTFSNFGIHWVRQAPGKGLEWVAYISSGGSAVFYADTVKGRFTISRDNSKNTLYLQMNSLRAEDTAVYYCAKSDRYFDYWGQGTTVTVSS VL: EIVLTQSPATLSLSPGERATLSCRASQSVSSSSYRYIHWYQQKPGQAPRLLIYYASNLESGIPARFSGSGSGTDFTLTISSLEPEDFAVYYCQHSWETPWTFGQGTKLEIKR

>  <pEC50>
9.53

$$$$
>  <Binder>
humanized anti-human MASP-2 monoclonal antibody 136-Hu (antibody, human IgG4 S228P, kappa, V domains shown) VH: QVQLVQSGAEVKKPGASVKVSCKASGNTFTNYWMHWIRQAPGQGLEWMGYINPNTGYTDFNQKFKDRVTLTADKSTSTAYMELSSLRSEDTAVYYCTLQLGRNFDYWGQGTTVTVSS VL: DIQMTQSPSSLSASVGDRVTITCRASQSVSSSRSTYIHWYQQKPGKAPKLLIYYSSNLESGVPSRFSGSGSGTDFTLTISSLQPEDFATYYCHQSWEIPYTFGQGTKLEIKR

>  <pEC50>
9.58

$$$$
>  <Binder>
humanized anti-human MASP-2 monoclonal antibody 124-Hu (antibody, human IgG4 S228P, kappa, V domains shown) VH: QVQLQESGPGLVKPSQTLSLTCTVSGYSITSDYAWNWIRQPPGKGLEWMGYISYSGRTSYNPSLKSRLTISRDTSKNQFSLKLSSVTAADTAVYYCARHYGDFWGQGTTVTVSS VL: DIQMTQSPSSLSASVGDRVTITCKASQNVDTNVAWYQQKPGKAPKLLIYSASYRYSGVPSRFSGSGSGTDFTLTISSLQPEDFATYYCQQYNSYPSTFGQGTKLEIKR

>  <pEC50>
9.60

$$$$
>  <Binder>
humanized anti-human MASP-2 monoclonal antibody 126-Hu (antibody, human IgG4 S228P, kappa, V domains shown) VH: QVQLVESGGGVVQPGRSLRLSCAASGFTFSSFGMHWVRQAPGKGLEWVAYISSGSSSSFYVDTVKGRFTISRDNSKNTLYLQMNSLRAEDTAVYYCARGDRNFEVWGQGTTVTVSS VL: DIQMTQSPSSLSASVGDRVTITCRASQSVSSSRYSYMHWFQQKPGKAPKLLIYHASNLESGVPSRFSGSGSGTDFTLTISSLQPEDFATYYCQQSWEVPWTFGQGTKLEIKR

>  <pEC50>
9.61

$$$$
